molecular target: cephalosporinase, which was isolated from Enterobacter cloacae (Enterobacter cloacae); construct: which was isolated from Enterobacter cloacae; endogenous in cells; assay: inhibition of representative cephalosporinase isolated from Enterobacter cloacae; conditions: read-out: IC50 against representative cephalosporinase
Sequence (P05364 21-381): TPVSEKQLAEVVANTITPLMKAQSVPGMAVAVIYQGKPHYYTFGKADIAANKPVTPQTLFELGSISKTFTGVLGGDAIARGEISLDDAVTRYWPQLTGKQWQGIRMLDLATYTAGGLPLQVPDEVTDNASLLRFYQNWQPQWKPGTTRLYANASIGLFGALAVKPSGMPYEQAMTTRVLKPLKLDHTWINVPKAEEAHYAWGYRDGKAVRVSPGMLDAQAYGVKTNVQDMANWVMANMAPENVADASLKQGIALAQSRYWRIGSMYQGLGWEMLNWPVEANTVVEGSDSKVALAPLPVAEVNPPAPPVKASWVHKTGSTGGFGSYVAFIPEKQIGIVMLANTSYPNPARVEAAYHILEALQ
Flag rule - IC50 less than 9 nM flags 1; the remaining entries get 0.

Task: Lab log: compare recorded IC50 with 9 nM; is it strictly lower for C=CCOC(=O)C(C(=O)N[C@@H]1C(=O)N2[C@@H]1SC(C)(C)[C@@H]2C(=O)O)=C1SC=CS1 [IIa] ?
Result: 1

Task: Lab log: compare recorded IC50 with 9 nM; is it strictly lower for CCOC(=O)C(C(=O)N[C@@H]1C(=O)N2[C@@H](C(=O)O)C(C)(C)S(=O)(=O)[C@H]12)=C1SCCS1 [Id] ?
Result: 0

Task: Lab log: compare recorded IC50 with 9 nM; is it strictly lower for COC(=O)C(C(=O)N[C@@H]1C(=O)N2[C@@H]1SC(C)(C)[C@@H]2C(=O)O)=C1SCCS1 [Ia] ?
Result: 1

Task: Lab log: compare recorded IC50 with 9 nM; is it strictly lower for CCOC(=O)C(C(=O)N[C@@H]1C(=O)N2[C@@H]1SC(C)(C)[C@@H]2C(=O)O)=C1SCCS1 [Ib] ?
Result: 1
